# System: Hepatitis C virus
# method-notes: Antiviral activity against Hepatitis C virus genotype 1b Con1 infected in human hepatoma cells assessed as inhibition of viral RNA replication by subgenomic replicon assay
# Type: functional, organism-based, Hepacivirus hominis
# assay-setup: genotype 1b Con 1
assay-readout: EC50 (nM)

Examples with their reported EC50 follow.
COCCNc1nc(C)c(-c2nc3c(C)nccc3s2)c(N[C@@H]2C[C@H](C(C)(C)O)[C@@H](O)[C@H]2O)n1 = 20
CO[C@H](C)CNc1nc(C)c(-c2nc3c(C)nccc3s2)c(N[C@@H]2C[C@H](C(C)(C)O)[C@@H](O)[C@H]2O)n1 = 20

A = Cc1nc(NCC2CC2)nc(N[C@@H]2C[C@H](C(C)(C)O)[C@@H](O)[C@H]2O)c1-c1nc2c(C)nccc2s1
B = Cc1nc(NCC(F)(F)F)nc(N[C@@H]2C[C@H](C(C)(C)O)[C@@H](O)[C@H]2O)c1-c1nc2c(C)nccc2s1
INPUT: Return label of the item with the larger EC50. Candidates: A , B . Please indicate the selected item by its label.
OUTPUT: A

###

# method-notes: Cytotoxicity against human hepatoma cells assessed as inhibition of [methyl-14C]thymidine incorporation in DNA after 3 days by scintillation proximity assay
# Format: cell-based
# assay-setup: human hepatoma cells
assay-readout: CC50 at 72 h (µM)
Unit µM implied. Number only.

COCC(O)(COC)[C@H]1C[C@@H](Nc2nc(NCC3CC3)nc(C)c2-c2nc3c(C)nccc3s2)[C@H](O)[C@@H]1O = 4
COC[C@@H](C)Nc1nc(C)c(-c2nc3c(C)nccc3s2)c(N[C@@H]2C[C@H](C(C)(C)O)[C@@H](O)[C@H]2O)n1 = 25
COCCNc1nc(C)c(-c2nc3c(C)nccc3s2)c(N[C@@H]2C[C@H](C(C)(C)O)[C@@H](O)[C@H]2O)n1 = 7
Cc1nc(NCC2CC2)nc(N[C@@H]2C[C@H](C(C)(C)O)[C@@H](O)[C@H]2O)c1-c1nc2c(C)nccc2s1 = 25

// below: CC50 at 72 h requested for another compound
INPUT: Consider the compound CO[C@H](C)CNc1nc(C)c(-c2nc3c(C)nccc3s2)c(N[C@@H]2C[C@H](C(C)(C)O)[C@@H](O)[C@H]2O)n1 . State its measured CC50 at 72 h.
OUTPUT: 25

###

# method-notes: AUC (0 to 24 hrs) in cynomolgus monkey at 3 mg/kg, po
# Assay type: ADME, organism-based, Macaca fascicularis
# Design: time < 24 hr, dose 3 mg/kg, route oral
# assay-setup: plasma
assay-readout: AUC(0-t) at 24 h (µM·h)

CO[C@H](C)CNc1nc(C)c(-c2nc3c(C)nccc3s2)c(N[C@@H]2C[C@H](C(C)(C)O)[C@@H](O)[C@H]2O)n1 = 13

a = Cc1nc(NCC2CC2)nc(N[C@@H]2C[C@H](C(C)(C)O)[C@@H](O)[C@H]2O)c1-c1nc2c(C)nccc2s1
b = COC[C@@H](C)Nc1nc(C)c(-c2nc3c(C)nccc3s2)c(N[C@@H]2C[C@H](C(C)(C)O)[C@@H](O)[C@H]2O)n1
c = Cc1nc(N[C@H](C)C2CC2)nc(N[C@@H]2C[C@H](C(C)(C)O)[C@@H](O)[C@H]2O)c1-c1nc2c(C)nccc2s1
d = COCCNc1nc(C)c(-c2nc3c(C)nccc3s2)c(N[C@@H]2C[C@H](C(C)(C)O)[C@@H](O)[C@H]2O)n1
INPUT: Number of molecules to sort: 4. Sort criterion: AUC(0-t) at 24 h, ascending. Write the labels in rank order as requested.
OUTPUT: a, c, d, b
(a: 0.3 µM·h, c: 0.5 µM·h, d: 3.7 µM·h, b: 10 µM·h)
